Assign IC50 to each entry below.
assayedSystem: MOZ-KAT6A (Homo sapiens, UniProt Q92794, A567V)
Construct: encoding amino acid residues 507 to 778 (Uniprot Q92794-1) of human KAT6A; made in house; host or cells: E. coli BL21 DE3
Sequence (Q92794 507-778 A567V limits assumed): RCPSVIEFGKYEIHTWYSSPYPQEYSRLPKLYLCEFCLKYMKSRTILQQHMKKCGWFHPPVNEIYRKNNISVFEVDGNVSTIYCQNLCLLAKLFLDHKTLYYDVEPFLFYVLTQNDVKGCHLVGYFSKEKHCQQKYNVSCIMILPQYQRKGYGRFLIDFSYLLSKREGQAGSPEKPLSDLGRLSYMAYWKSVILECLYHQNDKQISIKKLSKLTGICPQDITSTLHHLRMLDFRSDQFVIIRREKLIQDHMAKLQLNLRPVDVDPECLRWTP
assayOverview: Revised Acetyltransferase Biochemical Assay, KAT6A
statedConditions: Table 8 (MOZ-KAT6A), 1 μM Acetyl coenzyme A
Write the value in nM as a bare number.

Input line: Look at this compound and give its reported IC50. O=C(NCCC1CCCCC1)C1=Nc2ccc(Cl)cc2S(=O)(=O)N1
Output line: 1040

Input line: Would you kindly repeat that for CC(N)c1ccc2c(c1)S(=O)(=O)NC(C(=O)NCC(c1ccccc1)c1ncco1)=N2 (centres unmarked) ?
Output line: 1600

Input line: Next compound up: O=C(NCC(c1ccccc1)c1ncco1)C1=Nc2ccc(I)cc2S(=O)(=O)N1 (centres unmarked) [Example 41]
Output line: 5

Input line: Please give the result for O=C(NCC(c1ccccc1)c1nc(CO)no1)C1=Nc2ccc(I)cc2S(=O)(=O)N1 (centres unmarked) too.
Output line: 32

Input line: Proceed to N#Cc1cccc(C(CNC(=O)C2=Nc3ccccc3S(=O)(=O)N2)c2ncco2)c1 (centres unmarked)
Output line: 1360

Input line: Same thing, different compound: O=C(NCC(c1cccc(OCC2CC2)c1)c1ncco1)C1=Nc2ccc(I)cc2S(=O)(=O)N1 (centres unmarked)
Output line: 265

Input line: And then Cc1cc(O)cc(C(CNC(=O)C2=Nc3ccc(Cl)cc3S(=O)(=O)N2)c2ncco2)c1 (centres unmarked) , what is it?
Output line: 572

Input line: Continue with O=C(NCC(c1ccccc1)c1nccs1)C1=Nc2ccc(Cl)cc2S(=O)(=O)N1 (centres unmarked)
Output line: 7

----------
assayedSystem: MOF-KAT8 (Homo sapiens)
Sequence (Q9H7Z6 177-447): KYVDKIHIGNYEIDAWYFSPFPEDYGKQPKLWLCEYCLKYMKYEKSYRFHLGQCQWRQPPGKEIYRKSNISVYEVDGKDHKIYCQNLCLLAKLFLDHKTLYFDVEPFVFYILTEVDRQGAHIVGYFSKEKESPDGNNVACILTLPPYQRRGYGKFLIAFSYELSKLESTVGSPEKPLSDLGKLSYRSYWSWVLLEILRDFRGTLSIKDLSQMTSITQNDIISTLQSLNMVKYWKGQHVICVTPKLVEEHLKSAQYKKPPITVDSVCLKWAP
assayOverview: Revised Acetyltransferase Biochemical Assay, KAT8
measure: pIC50
Hey, just a heads up that pIC50 is the negative log base 10 of the concentration in molar.

Input line: Consider the compound COCc1cnn(-c2ccccc2CCNC(=O)C2=Nc3ccc(I)cc3S(=O)(=O)N2)n1 and give its measured pIC50.
Output line: 4.12

Input line: Quick one: O=C(NCC(c1cccc(Cl)c1)c1ncco1)C1=Nc2ccc(I)cc2S(=O)(=O)N1 (centres unmarked)
Output line: 4.83

Input line: Can you handle CNC(=O)CCOC(=O)C(CNC(=O)C1=Nc2ccc(I)cc2S(=O)(=O)N1)c1ccccc1 (centres unmarked) next?
Output line: 4.52

Input line: Same thing, different compound: O=C(NCCc1ccccc1-c1ncco1)C1=Nc2ccc(I)cc2S(=O)(=O)N1
Output line: 4.44

Input line: Note, next up: O=C(NCC(c1ccccc1)c1ccccn1)C1=Nc2ccc(Br)cc2S(=O)(=O)N1 (centres unmarked)
Output line: 4.52

Input line: O=C(NCC(c1cccc(-c2ccccc2)c1)c1ncco1)C1=Nc2ccccc2S(=O)(=O)N1 (centres unmarked) , same question.
Output line: 4.51
